Test system: MS2 coat protein
Assay: apparent KD of MS2 coat protein; designed switch direction (-1 OFF switch, 1 ON switch): 1; higher = weaker reporter binding
Details: Eterna round: R95; input ligand: none

QUERY SEQUENCE | RESULT UNIT | apparent KD of MS2 coat protein
GUAUAACAUGAGGAUCACCCAUGUCAACAAAGUCGAGGAUAUGGGCAUAGAUUAUAAGAACCAGAAGGCGAAUAUG [Mat - Same State 1 - Mod of UCT - D42] (puzzle: Same State 1) | nM | 666
AAUAUACAUGAGGAUCACCCAUGUUAGUAAAUGACAGGAUAUGCAAUAAAUAAAUAAUAAGCAGAAGGGUCUAAUA [JMF's solution 1] (puzzle: Same State 1) | nM | 16
GAGUGAUGGGUUAGUAACUGCUGGGAAGGACAUGAGGAUCACCCAUGUGAGUAGCGAGCUUGUGCUCGUCUUAUUAG [JR_SHM208A_Sub023] (puzzle: Sensor for hsa-mir-208a) | nM | 379

* * *

System: MS2 coat protein
Assay: apparent KD of MS2 coat protein; designed switch direction (-1 OFF switch, 1 ON switch): -1; higher = weaker reporter binding
Conditions: Eterna round: R95; input ligand: microRNA oligo, concentration not stated
Use apparent KD of MS2 coat protein to assign classes; range list: interval 1: < 30 nM; interval 2: ≥ 30 nM and < 50 nM; interval 3: ≥ 50 nM

QUERY SEQUENCE | CAT
UUUUAACAUGAGGAUCACCCAUGUGAGGAUAUCGAAAUUUAUAUUAAUAUUAAUAAAACGAGAAGGCACAUUUU [JMF 4] (puzzle: Exclusion 1) | interval 3
CCUCAACAGUAGGAUAUCAUCAAACUAUUGUGAUGAGAAGGACUGACAUGAGGAUCACCCAUGUUGACGUGAUA [Exclusion 6 - 6:b] (puzzle: Exclusion 6) | interval 2
CUUUUGUGAGGAUAUCAGUGGUAAUACAAUAGUAUUACUACUGAGAAGGCACAUGAGGAUCACCCAUGUUCCUC [Ex4 344 Omei mod 11] (puzzle: Exclusion 4) | interval 2
CUUUAGCUAGGAUAUACAUGAGGAUCACCCAUGUUAGCGGUCAAUUGGGCCGCGGGUUGUAGAAGGAGCAUUAA [Aniscerile] (puzzle: Exclusion 3) | interval 1
AAGGAACAUGAGGAUCACCCAUGUGAGGAUAUGUGAGAAGGAUUUGAGAAGGAGAGGGACAGAAGGCACUAGGA [JR_Exclu1_Sub081] (puzzle: Exclusion 1) | interval 2
AGAUGGCGAGGAUAUACAUGAGGAUCACCCAUGUGAGAGAAGAAAGUGAGGAAGAAAAGUAGAAGGCGCUGUCA [Mat - Exclusion 3 - Mod of Salish D11] (puzzle: Exclusion 3) | interval 3
UAGAUGGGAGGAUAUACGUAGAUACAGAUUCGUGUAGUGCUACAUGAGGAUCACCCAUGUAGAAGGCCCGUCUU [JL-ex2-2.23 Mayanne mod] (puzzle: Exclusion 2) | interval 1
ACAAGCUUUUUGCUCGGGUACAUGAGGAUCACCCAUGUUUGUGUUUAUUGAGGUUGUGUUGUCGUGCGCUGCAGGUU [JR_SV3TOV1_Sub077] (puzzle: Sensor v3, turn-off variant 1) | interval 2
GAGCUAUGAGGAUAUGCAUAUAUACGGUUUCGUGUGGUACUACAUGAGGAUCACCCAUGUAGAAGGCGUGGCUG [JL-ex2-2.05 mat747 mod] (puzzle: Exclusion 2) | interval 1
GGUGGACAUGAGGAUCACCCAUGUGAGGAUAUCGGCCGGUGCGUGGUGGCUGGCGUCUCGAGAAGGCACAUAGU [Exclusion 1 V68] (puzzle: Exclusion 1) | interval 3
GUAAAGUGAGGAUAUGGUAAAGUAAUUAUUUAGUAAUUAAUCCAGAAGGCACAUGAGGAUCACCCAUGUAAAUG [Mat - Exclusion 4 - D96] (puzzle: Exclusion 4) | interval 1
